# Protocol text: folding stability dG unfold from trypsin proteolysis; higher = more stable
Property measured: folding stability dG unfold (kcal/mol)
Answers are plain numbers, in kcal/mol.

Worked examples follow.
# Residues, folding stability dG unfold (kcal/mol)
data = [
    ("SAGGEELMKDHPNFIFITIEIRHPGGGKEKPKFMIMIPNNTPEELIDELRDFLPPGYKIKDVEIHYMDSAGG [r13_849_TrROS]", 2.41),
    ("SAGGSAGGSAMRLRLKVKPGEKVRIRVERDGKVYEFEVTVEEGADEIEIDLPPGVKRIEIEPSAGGSAGGSA [r18_124_TrROS_Hall]", 2.76),
    ("SAPVVVVETIPDGGVLIVPAVFEPDKLLEYVEEIVNKIKPKGAEVEAKVIKVEPFEDFVVVTFEVKVKPSAG [r14_345_TrMRF]", 1.69),
    ("SAGGSAGGSAGSMTITITETKKLPNGKTVVTTTKVEVRVFPNGGAIERKTLEVVTEELLGSAGGSAGGSAGG [r17_129_JUSTAS]", 1.34),
    ("SAGGSAGGSETVTLTLVVDSPEEAKALIDALKKAGIKEVTLEEKDGKLVLTITMSKEELEKLKSAGGSAGGS [r12_846_TrROS_Hall]", 2.31),
]

Quick one: give me folding stability dG unfold for each item below, same order please.
1. SAGGSAGGSAGGGMAITTRPGSSEVSTTPVPSDVTASTTTPLASGEPVEVTYERVGDPTLSAGGSAGGSAGG [r7_21_JUSTAS]
2. SAGGATLTEPETTVEVRFEKLPDGTVIRTTTTITPEGVTTTTEPVPVPPSPGASSEEELEALRAAAAAASAG [r5_272_JUSTAS]
3. SAGMDVKELAKEAMEKYPPGDKEIEFEIPVGPRPFKVKIDYEPDPENGKPRPKITIENPDNGKKTEFTFSAG [r5_236_TrROS]
4. SAGGPMPLDDIEIHNVWPYKGEYWMVMITVPNNGKEIMIPWDDLDELLENDPNVEVDVMPIKPGQPMSAGGS [r16_61_TrROS]
5. SAGGSAGGSAKMEIVLEVDTPEEAKEAAKKLAEELKKKGYKVKVEVKKLKNGKYYVKITVDSAGGSAGGSAG [r3_211_TrROS_Hall]
6. SAGGKIPKNAKILEVEFDPETGYIRIKVEFYDKNGKLIKKAEITIPILPVPPLSPEDIEKLLKALASSAGGS [r16_697_TrMRF]
7. SAGGSAGGSAGGSSRTIKLDGYKITVHPNSVHIYPPKNGKPVTVPMDNPEVQDLIKELISAGGSAGGSAGGS [r4_353_TrROS]

1: 0.405; 2: 1.75; 3: -1.07; 4: 1.12; 5: 3.33; 6: 3.15; 7: -1.19

Quick one: give me folding stability dG unfold for each item below, same order please.
1. SAGGSAGGSAGNIAERLQEAFPDYGIEVTDITPNGSITVTSRGPPGHRKKIQKAVKELLNSAGGSAGGSAGG [r11_418_TrROS]
2. SAGGSAGGSSPEENLETQVETELLEEFKPGDKPRKLVKTTVTYPDGTTKEEIVTIDENGNILLSAGGSAGGS [r12_755_JUSTAS]

1: -0.879; 2: -0.206

----------
I'd be grateful if you could share measured folding stability dG unfold for these entries.
# Protocol text: folding stability dG unfold from trypsin proteolysis; higher = more stable
One number for each entry, in kcal/mol.

Worked examples follow.
# Residues, Property measured, Measurement units, Reported value
rows = [
    ("SAGSMHLVEFTGTEEVVDEFLASLPPEVVVERERYPDRWLVRLPPDVPARTITVPTPDGRPVTFTLRLESAG [r5_123_JUSTAS]", "folding stability dG unfold", "kcal/mol", -0.851),
    ("SAGGSAMTITIKIENEDVTIPSSKSKEEILKAIKENPDVPVTVTLPDGTPVTLSPEELEKLIKEEKSAGGSA [r15_36_JUSTAS]", "folding stability dG unfold", "kcal/mol", 1.02),
    ("SAGGSAGGSAGGPTLELEITLPDGFKLRVTFDPEKGLRVELVEPVPAPPPKVEYRSLEDLSAGGSAGGSAGG [r11_188_TrROS_Hall]", "folding stability dG unfold", "kcal/mol", 0.552),
    ("SAMIVVPATFDDRTFVLRIERLPDGSYLVDVEDPDVSREAVVEALRELLPEDAKIVLDPETNLVYVSFDSAG [r14_370_TrMRF]", "folding stability dG unfold", "kcal/mol", 3.34),
    ("SAGGSAGGSEVLEVVLPRPDGRLVLLRVDPEGRLALVVFPDGSVRVFEVESPEEAVQRVLDAESAGGSAGGS [r12_866_TrMRF]", "folding stability dG unfold", "kcal/mol", 1.92),
    ("SADHKFEIDINVFEHDGWRYIMIPVKYDDPQDVDEAAEKILREFGIPPNFNVNVMRSPNEVWINIRIPYSAG [r14_804_TrROS]", "folding stability dG unfold", "kcal/mol", 2.08),
]

Return folding stability dG unfold for the following sequence: SAGGSAGGSKPRPIDIMFPNPENGRPVMIRIEYTKDKIKAEWYFGNKPQEKKIDDPEDLLEFISAGGSAGGS [r12_299_TrROS] 0.0886

----------
I'd be grateful if you could share measured folding stability dG unfold for these entries.
# Protocol text: folding stability dG unfold from chymotrypsin proteolysis; higher = more stable
Answers are plain numbers, in kcal/mol.

Worked examples follow.
# Residues, Property measured, Measurement units, Reported value
records = [
    ("SAPLDPDQAKEQAENIADYFQDEMQDQFGMDPSDIDVDVKVEQEPNGHYRITVEITMGNMPIEMEIYVPSAG [r14_226_TrROS]", "folding stability dG unfold", "kcal/mol", 2.1),
    ("SAGGMAVPVKVRDPVNGNWKTLDNIESIDEVVEVDPTDGSRSYFVKLKGSGKWYVVDDPEAVEAAKGSAGGS [r8_206_TrMRF]", "folding stability dG unfold", "kcal/mol", 1.08),
    ("SKVKPGEKVEYVEITITVDVKSVEELEKKLRELLGVKEVKVTVTEENGKLTLTIVVKSKEEADKLKELLSSA [r9_764_TrROS_Hall]", "folding stability dG unfold", "kcal/mol", 1.73),
    ("SAPPRTFIIPIERNPDGNVRLNIRMPGMEIEYEFPPGKDAEDALDKLSPHPGFNVELTEVDPNWIKITFSAG [r14_404_TrROS]", "folding stability dG unfold", "kcal/mol", 1.75),
]

Quick one: give me folding stability dG unfold for each item below, same order please.
1. SAGGSAGGSDVEDIIKKLKIPPGYRMRFPDGKSHKFNNLDDIRNLAEMGMPPDNIDKIQIQPYSAGGSAGGS [r12_430_TrROS]
2. SAGMGSDVPVLTAVLSVLNPETGEEVTIEVPGRNDYGEGKLIRPVSPEDLLAAALAVADALLKDPSLKASAG [r5_426_TrMRF]
3. MRLRLTFRLPDGTEFRVERVEVLRVEPRGDRVVIPVRAYFTPEERRRLEELIPGLRDRPPLVVEVEIVLTGS [r1_35_TrMRF]
4. SAMKPFPAKEAIEQILEEMEDMPLPPGQEEVEFQIRLPDDGAPVQISIERNPGKWKIEIYVGNKPIWITSAG [r14_199_TrROS]
5. SAGGGSSSSSLTFTYDPATGKVLGSESFTIPSPSGEPRTNVLTLVEKNPSGTLKTTVLTRPVPPTLSSAGGS [r16_595_JUSTAS]
6. SAGGSAGGSAGGPRVGVVRELPDDSRVALLEIEETLTSPGPDGTPRSRPFRAVFVVPLGSAGGSAGGSAGGS [r10_718_TrMRF]

1. 0.09
2. 0.24
3. 4.38
4. 2.43
5. 2.62
6. 0.69

Quick one: give me folding stability dG unfold for each item below, same order please.
1. SAGGSAPMFEIWFRDPEAIEKLLEESGFPVSIERFPNDPNWVKITIFMKGPMEEAQDKLREALGLESAGGSA [r15_118_TrROS]
2. SAGGSAKTITIYAPDLPLSEAIETLERLIKELGLTPVSVSVSYNPETGTVTITVTLPNGDTLTLHVSAGGSA [r15_958_TrMRF]
3. SPNMQPVEMEFKIKVPGKPVDIKIEMWRMPDGQTRMDIRYPDGRSIMFNPSNGSIKIYDPKDGKPLAEISSA [r9_970_TrROS]
4. SMTPEVSVITLRPVEVKKVGEVPVVTLEVTEVENAPEELLEKVKAGAKLTIEVPKDEPIEPDEEIEVVLPSA [r9_557_JUSTAS]

1: 2.95; 2: 3.37; 3: 1.47; 4: 0.146

----------
I'd be grateful if you could share measured folding stability dG unfold for these entries.
# Protocol text: folding stability dG unfold (combined trypsin and chymotrypsin); higher = more stable
Give bare numbers, in kcal/mol.

Worked examples follow.
# Residues, Reported value
data = [
    ("SAGGSAGGSAGGYVGPDQPVIIVEVKVKGARIGKDGKIYYDFEVERIEIREVEEGDNLGSAGGSAGGSAGGS [r10_826_TrMRF]", 1.82),
    ("SAGGSAGGSAGSPLAQAVIDELKAQGYTVEAVTVTQPPGNAPVVVVTVKKPDGTRVVIDLSAGGSAGGSAGG [r11_780_JUSTAS]", 2.39),
    ("SAWIEIEKDPDGMFELEIPWPDGHPVKIHYNPDDGKPLHIMFPNGWHLQIWISPDGKIEIEDIHPIPPNSAG [r14_877_TrROS]", 3.01),
]

Now consider the entry below.
Return folding stability dG unfold for the following sequence: SAGGMTIEVPDGFRIDGFRPFPDGRSAVLVRYKGTGKVEIFPFGDRVPEASADEPVEVEVVPIPPELLSAGG [r13_173_TrMRF] -0.353
